- Test system: human PD-L1 / Human PD-1 (Homo sapiens (Human), UniProt Q9NZQ7)
- Sequence (Q9NZQ7 19-239): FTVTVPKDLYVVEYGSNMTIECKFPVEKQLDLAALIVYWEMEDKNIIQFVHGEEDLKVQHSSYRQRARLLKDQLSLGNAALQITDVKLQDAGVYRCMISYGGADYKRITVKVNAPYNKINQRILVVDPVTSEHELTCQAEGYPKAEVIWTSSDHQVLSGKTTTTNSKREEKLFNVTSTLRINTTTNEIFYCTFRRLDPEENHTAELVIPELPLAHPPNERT
- Procedure summary: Enzyme-Linked Immunosorbent Assay (ELISA), PD-1/PD-L1 binding
- Assay setup: plate-coated human PD-L1, biotinylated human PD-1
Measure: IC50

>>> data_value("Cc1c(OCCCN2CCC(F)CC2)cccc1-c1cccc2c1CC[C@@H]2Oc1cc(OCc2cc(C#N)cc(C#N)c2)c(CN[C@@H]2CCC(=O)NC2)cc1Cl")
"< 5 nM"
>>> data_value("Cc1c(OCCCN2CCC(O)CC2)cccc1-c1cccc2c1CC[C@@H]2Oc1cc(OCc2cncc(C#N)c2)c(CN2CC(C(=O)O)C2)cc1Cl")
"< 5 nM"
>>> data_value("N#Cc1cncc(COc2cc(O[C@H]3CCc4c(-c5cccc(OCCCN6CCC(F)CC6)c5Cl)cccc43)c(Cl)cc2CN[C@@H]2CCOC[C@H]2F)c1 [drawing 223]")
"5 to 500 nM"
>>> data_value("Cc1c(OCCCN2CC[C@@H](O)C2)cccc1-c1cccc2c1CC[C@@H]2Oc1cc(OCc2cncc(C#N)c2)c(CN[C@H](C(=O)O)[C@@H](C)O)cc1Cl")
"< 5 nM"
>>> data_value("CCN1CCC(COc2cccc(-c3cccc4c3CC[C@@H]4Oc3cc(OCc4cncc(C#N)c4)c(CNC[C@@H]4CCC(=O)N4)cc3Cl)c2Cl)C1 (some centres unmarked)")
"< 5 nM"

----------
- Test system: human PD-L1 / Human PD-1 (Homo sapiens (Human), UniProt Q9NZQ7)
- Procedure summary: Enzyme-Linked Immunosorbent Assay (ELISA), PD-1/PD-L1 binding
- Assay setup: plate-coated human PD-L1, biotinylated human PD-1
pIC50: −log10 of the molar value.
Entries and their pIC50
Measure: pIC50

>>> data_value("Cc1c(OCCCN2CCC(O)CC2)cccc1-c1cccc2c1CC[C@@H]2Oc1cc(OCc2cncc(C#N)c2)c(CN[C@@H](CNC(=N)N)C(=O)O)cc1Cl")
"> 8.30"
>>> data_value("Cc1c(OCCCN2CCC(C)(F)C2)cccc1-c1cccc2c1CC[C@@H]2Oc1cc(OCc2cc(C#N)cc(C#N)c2)c(CN[C@H]2CCC(=O)NC2)cc1Cl (stereo partly shown)")
"6.30 to 8.30"
>>> data_value("CC1(F)CCN(CCCOc2cccc(-c3cccc4c3CC[C@@H]4Oc3cc(OCc4cncc(C#N)c4)c(CN4CC5(C4)NC(=O)NC5=O)cc3Cl)c2Cl)CC1")
"6.30 to 8.30"
>>> data_value("N#Cc1cncc(COc2cc(O[C@H]3CCc4c(-c5cccc(OCCCN6CCC(F)CC6)c5Cl)cccc43)c(Cl)cc2CN[C@@H]2CCC[C@H]2O)c1")
"> 8.30"
>>> data_value("N#Cc1cc(C#N)cc(COc2cc(O[C@H]3CCc4c(-c5cccc(OCCCN6CCC(F)CC6)c5Cl)cccc43)c(Cl)cc2CN[C@H]2CCC(=O)NC2)c1")
"6.30 to 8.30"
>>> data_value("N#Cc1cncc(COc2cc(O[C@H]3CCc4c(-c5cccc(OCCCN6CC7(C6)CC(F)(F)C7)c5Cl)cccc43)c(Cl)cc2CN[C@H]2CCC[C@@H]2O)c1")
"> 8.30"
>>> data_value("Cc1c(OCCCN2CCC(C)(F)CC2)cccc1-c1cccc2c1CC[C@@H]2Oc1cc(OCc2cncc(C#N)c2)c(CNC[C@H]2CCC(=O)N2)cc1Cl")
"6.30 to 8.30"
>>> data_value("C[C@@H](O)[C@H](NCc1cc(Cl)c(O[C@H]2CCc3c(-c4cccc(OCCCN5CCC(O)CC5)c4Cl)cccc32)cc1OCc1cncc(C#N)c1)C(N)=O")
"> 8.30"
>>> data_value("CCOc1cc(O[C@H]2CCc3c(-c4cccc(OCCCN5CCC5(C)C)c4C)cccc32)c(Cl)cc1CN(CCC(=O)O)C(C)C")
"6.30 to 8.30"
>>> data_value("Cc1c(OCCCN2CCC(O)CC2)cccc1-c1cccc2c1CCC2Oc1cc(OCc2cc(C#N)cc(C#N)c2)c(CN[C@@H](CO)C(=O)O)cc1Cl (stereo partly shown)")
"> 8.30"
>>> data_value("CCOc1cc(O[C@H]2CCc3c(-c4cccc(OCCCN5CC[C@@H](O)C5)c4C)cccc32)c(Cl)cc1CN[C@@](C)(CO)C(=O)OC(C)C")
"6.30 to 8.30"
>>> data_value("Cc1c(OCCCN2CCC(C)(F)CC2)cccc1-c1cccc2c1CC[C@@H]2Oc1cc(OCc2cc(C#N)cc(C#N)c2)c(CNC[C@H]2CCC(=O)N2)cc1Cl")
"6.30 to 8.30"
>>> data_value("Cc1c(OCCCN2CC(O)C2)cccc1-c1cccc2c1CC[C@@H]2Oc1cc(OCc2cncc(C#N)c2)c(CNCC2CCC(=O)N2)cc1Cl (stereo partly shown)")
"> 8.30"

----------
- Test system: human PD-L1 / Human PD-1 (Homo sapiens (Human), UniProt Q9NZQ7)
- Procedure summary: Enzyme-Linked Immunosorbent Assay (ELISA), PD-1/PD-L1 binding
- Assay setup: plate-coated human PD-L1, biotinylated human PD-1
pIC50: −log10 of the molar value.
Below, each of the compounds is paired with its reported pIC50 value.
Measure: pIC50

>>> data_value("Cc1c(OCCCN2CCC(O)CC2)cccc1-c1cccc2c1C[C@H](F)[C@@H]2Oc1cc(OCc2cncc(C#N)c2)c(CN[C@@](C)(CO)C(=O)O)cc1Cl")
"> 8.30"
>>> data_value("N#Cc1cncc(COc2cc(O[C@H]3CCc4c(-c5cccc(OCCCN6CCC(O)CC6)c5Cl)cccc43)c(Cl)cc2CNC[C@H]2CCC(=O)N2)c1")
"> 8.30"
>>> data_value("N#Cc1cncc(COc2cc(O[C@H]3CCc4c(-c5cccc(OCCCN6CC7(CC(O)C7)C6)c5Cl)cccc43)c(Cl)cc2CN[C@@H]2CCC[C@H]2O)c1")
"> 8.30"
>>> data_value("Cc1c(OCCCN2CCC(F)CC2)cccc1-c1cccc2c1CC[C@@H]2Oc1cc(OCc2cncc(C#N)c2)c(CNC[C@H]2CCC(=O)N2)cc1Cl")
"> 8.30"
>>> data_value("N#Cc1cncc(COc2cc(O[C@H]3CCc4c(-c5cccc(OCCCN6CCC(F)CC6)c5Cl)cccc43)c(Cl)cc2CN[C@@H]2CCC[C@@H]2O)c1")
"> 8.30"
>>> data_value("CCOc1cc(O[C@H]2CCc3c(-c4cccc(OCCCN5CCC5(C)C)c4C)cccc32)c(Cl)cc1CN1CC[C@H](C(=O)OC)C1")
"6.30 to 8.30"
>>> data_value("N#Cc1cncc(COc2cc(O[C@H]3CCc4c(-c5cccc(OCCCN6CCC(F)CC6)c5Cl)cccc43)c(Cl)cc2CN2CC(C(=O)O)C2)c1")
"> 8.30"
>>> data_value("Cc1c(OCCCN2CCCC[C@@H]2C)cccc1-c1cccc2c1CC[C@@H]2Oc1cc(OCc2cc(C#N)cc(C#N)c2)c(CNC[C@@H]2CCC(=O)N2)cc1Cl")
"> 8.30"
>>> data_value("Cc1c(OCCCN2CCC(O)CC2)cccc1-c1cccc2c1CC[C@@H]2Oc1cc(OCc2cncc(C#N)c2)c(CNC(C)(CO)CO)cc1Cl")
"6.30 to 8.30"
>>> data_value("N#Cc1cncc(-c2cc(O[C@H]3CCc4c(-c5cccc(OCCCN6CCC(F)CC6)c5Cl)cccc43)c(Cl)cc2CNC[C@H]2CCC(=O)N2)c1")
"4.70 to 6.30"
>>> data_value("CCOc1cc(O[C@@H]2CCc3c(-c4cccc(OCCCN5CCC5(C)C)c4C)cccc32)c(Cl)cc1CN(C)CCC(=O)O")
"4.70 to 6.30"
>>> data_value("CCOc1cc(O[C@H]2CCc3c(-c4cccc(OCCC(C)(C)N)c4C)cccc32)c(Cl)cc1CNC[C@@H]1CCC(=O)N1")
"6.30 to 8.30"
>>> data_value("Cc1c(OCCCN2CC(C)(F)C2)cccc1-c1cccc2c1CC[C@@H]2Oc1cc(OCc2cc(C#N)cc(C#N)c2)c(CNC[C@H]2CCC(=O)N2)cc1Cl")
"6.30 to 8.30"
>>> data_value("Cc1c(OCCCN2CCC(C)(F)CC2)cccc1-c1cccc2c1CC[C@@H]2Oc1cc(OCc2cc(C#N)cc(C#N)c2)c(CNC[C@@H]2CCC(=O)N2)cc1Cl")
"6.30 to 8.30"
>>> data_value("N#Cc1cncc(COc2cc(O[C@H]3CCc4c(-c5cccc(OCCCN6CC7(CC(O)C7)C6)c5Cl)cccc43)c(Cl)cc2CN[C@@H]2CCCC[C@@H]2O)c1")
"> 8.30"
>>> data_value("CCOc1cc(O[C@H]2CCc3c(-c4cccc(OCCCN5CCC5(C)C)c4C)cccc32)c(Cl)cc1CN(C)CCCC(=O)O")
"> 8.30"
>>> data_value("CC(C)(O)CNCc1cc(Cl)c(O[C@H]2CCc3c(-c4cccc(OCCCN5CC(O)C5)c4Cl)cccc32)cc1OCc1cncc(C#N)c1")
"> 8.30"
>>> data_value("Cc1c(OCCCN2CCC(C)(F)CC2)cccc1-c1cccc2c1CC[C@@H]2Oc1cc(OCc2cc(C#N)cc(C#N)c2)c(CN[C@@H]2CCC(=O)NC2)cc1Cl")
"6.30 to 8.30"
>>> data_value("Cc1c(OCCCN2CCC(C)(F)CC2)cccc1-c1cccc2c1CC[C@@H]2Oc1cc(OCc2cc(C#N)cc(C#N)c2)c(CN[C@H]2CCC(=O)NC2)cc1Cl")
"6.30 to 8.30"
>>> data_value("CCOc1cc(O[C@H]2CCc3c(-c4cccc(OCCCN5CCC5(C)C)c4C)cccc32)c(Cl)cc1CN(C)CCC(=O)O")
"6.30 to 8.30"
>>> data_value("N#Cc1cncc(COc2cc(O[C@H]3CCc4c(-c5cccc(OCCCN6CC7(CC(F)C7)C6)c5Cl)cccc43)c(Cl)cc2CN[C@H]2CC[C@@H]2O)c1")
"> 8.30"
>>> data_value("Cc1c(OCCCN2CCCC[C@H]2C)cccc1-c1cccc2c1CC[C@@H]2Oc1cc(OCc2cc(C#N)cc(C#N)c2)c(CNC[C@H]2CCC(=O)N2)cc1Cl")
"> 8.30"
>>> data_value("N#Cc1cncc(COc2cc(O[C@H]3CCc4c(-c5cccc(OCCCN6CC[C@H](F)C6)c5Cl)cccc43)c(Cl)cc2CN[C@@H]2CCCC[C@@H]2O)c1")
"> 8.30"
>>> data_value("CC(CO)(NCc1cc(Cl)c(O[C@H]2CCc3c(-c4cccc(OCCCN5CC6(CC(O)C6)C5)c4Cl)cccc32)cc1OCc1cncc(C#N)c1)C(=O)O (some centres unmarked)")
"> 8.30"
>>> data_value("Cc1c(OCCCN2CCC(F)CC2)cccc1-c1cccc2c1CC[C@@H]2Oc1cc(OCc2cc(C#N)cc(C#N)c2)c(CN[C@@H]2CCC[C@@H]2O)cc1Cl")
"> 8.30"
>>> data_value("CC(CO)(NCc1cc(Cl)c(O[C@H]2CCc3c(-c4cccc(OCCCN5CC6(CC(F)C6)C5)c4Cl)cccc32)cc1OCc1cncc(C#N)c1)C(=O)O (some centres unmarked)")
"> 8.30"

Cited source: patent US10919852B2
